Assay: Measurement of the compounds' metabolic rate (human liver S9, LC/MS/MS)
Type: in vitro ADME
Settings: human liver S9 0.5 mg protein/mL, compound 1 μmol/L, NADPH generating system, pH7.4, 37° C.
Metric: percent of unchanged compound remaining after 5 min (%)

The following molecules have reported results that may help.
1) Cc1cccc(-c2noc(NC(=O)CCc3ccccc3)c2-c2ccncc2)c1 | 17.6
2) Cc1ccc(F)c(-c2noc(NC(=O)CCc3cccc(Cl)c3)c2-c2ccncc2)c1 | 50.5
3) Cc1cccc(-c2noc(NC(=O)CCc3ccccc3C)c2-c2ccncc2)c1 | 23.3

P. Cc1cc(-c2noc(NC(=O)Cc3ccccc3Cl)c2-c2ccncc2)ccc1F
Q. Cc1cc(-c2noc(NC(=O)CCc3ccccc3)c2-c2ccncc2)ccc1F
Between these two entries, P and Q , state which has the higher percent of unchanged compound remaining after 5 min. Please indicate the selected item by its label.
P
(P: 59.7%, Q: 20.1%)
